System: BxPC-3
Assay: cells
Parameters: ATPlite luminescence viability of PDAC cell lines, 11-dose single-agent curves, 4-parameter fit
Conditions: Homo sapiens, BXPC-3, 72 h, read-out: EC50 [nM]
Description: Afterward, small amounts were transferred to 384-well intermediate plates (Greiner Bio-One GmbH, Germany). […] Next, we analyzed the drug sensitivity of immortalized duct cell line HPDE to detect effects unrelated to pancreatic cancer.
observable: EC50 (nM)
Quick reminder: number only, in nM, skip the unit.

1) Cc1cc(Nc2ncc(Cl)c(Nc3ccccc3S(=O)(=O)C(C)C)n2)c(OC(C)C)cc1C1CCNCC1 | 2870
2) COCc1c(-c2cc3cc(C)cc(OC)c3s2)c2c(N)ncnn2c1CN1CCNC(=O)C1 | 4270
3) C[C@]12O[C@H](C[C@]1(O)CO)n1c3ccccc3c3c4c(c5c6ccccc6n2c5c31)CNC4=O | 432

Entry "COc1c(OCCCN2CCOCC2)ccc2c1N=C(NC(=O)c1cnc(N)nc1)N1CCN=C21" ; assay system BxPC-3; EC50 recorded at 113

Entry "COc1cc(Nc2ncc(F)c(Nc3ccc4c(n3)N(COP(=O)(O)O)C(=O)C(C)(C)O4)n2)cc(OC)c1OC" ; assay system BxPC-3; EC50 recorded at 4790

Entry "CCN(CC)CCNC(=O)c1c(C)[nH]c(/C=C2\C(=O)Nc3ccc(F)cc32)c1C" ; assay system BxPC-3; EC50 recorded at 2840

----------
tested on: AsPC-1 cells; test: Drug combination viability screen (ATPlite, 72 h); assay type: cell-based, human; details: Homo sapiens, ASPC1; read-out: EC50
observable: pEC50
Reminder that pEC50 is minus the log10 of a molar concentration.

// field: pEC50; key: "Nc1ccn([C@@H]2O[C@H](CO)[C@@H](O)C2(F)F)c(=O)n1" ; value = 7.57

// field: pEC50; key: "CCN1CCN(Cc2ccc(Nc3ncc(F)c(-c4cc(F)c5nc(C)n(C(C)C)c5c4)n3)nc2)CC1" ; value = 4.78

----------
target: all target kinases identified with the Kinobeads technology; assay: Kinobeads competition pulldown in AsPC-1 lysate, all kinases; conditions: all targets other than ATR and ACVR2; read-out: KDapp of all other targets
observable: Kd

// field: Kd; key: "CNCc1ccc(-c2cc(-c3nc(-c4ccc(S(=O)(=O)C(C)C)cc4)cnc3N)on2)cc1" ; value = > 10 nM

----------
test system: BxPC-3; test: cells; parameters: Viability of PDAC cell lines, ATPlite luminescence, 11-dose single-agent curve fit; conditions: 72 h; read-out: EC50
observable: pEC50
Reminder that pEC50 is minus the log10 of a molar concentration.

// field: pEC50; key: "O=C(Nc1cnn2ccc(N3CCC[C@@H]3c3cc(F)ccc3F)nc12)N1CC[C@H](O)C1" ; value = 6.45

----------
system: PDO UME053; test: PDO viability assay (CellTiter-Glo, 72 h); format: cell-based, human; conditions: Homo sapiens, PDO UME053; GEM alone; read-out: EC50 mean
observable: EC50 (nM)
Quick reminder: number only, in nM, skip the unit.

// field: EC50; key: Nc1ccn([C@@H]2O[C@H](CO)[C@@H](O)C2(F)F)c(=O)n1 [GEM, Gemcitabine] ; value = 3.8

----------
target: CIT ; O14578-4;O14578;O14578-2 (Homo sapiens); assay: biochemical
Sequence (O14578 whole entry): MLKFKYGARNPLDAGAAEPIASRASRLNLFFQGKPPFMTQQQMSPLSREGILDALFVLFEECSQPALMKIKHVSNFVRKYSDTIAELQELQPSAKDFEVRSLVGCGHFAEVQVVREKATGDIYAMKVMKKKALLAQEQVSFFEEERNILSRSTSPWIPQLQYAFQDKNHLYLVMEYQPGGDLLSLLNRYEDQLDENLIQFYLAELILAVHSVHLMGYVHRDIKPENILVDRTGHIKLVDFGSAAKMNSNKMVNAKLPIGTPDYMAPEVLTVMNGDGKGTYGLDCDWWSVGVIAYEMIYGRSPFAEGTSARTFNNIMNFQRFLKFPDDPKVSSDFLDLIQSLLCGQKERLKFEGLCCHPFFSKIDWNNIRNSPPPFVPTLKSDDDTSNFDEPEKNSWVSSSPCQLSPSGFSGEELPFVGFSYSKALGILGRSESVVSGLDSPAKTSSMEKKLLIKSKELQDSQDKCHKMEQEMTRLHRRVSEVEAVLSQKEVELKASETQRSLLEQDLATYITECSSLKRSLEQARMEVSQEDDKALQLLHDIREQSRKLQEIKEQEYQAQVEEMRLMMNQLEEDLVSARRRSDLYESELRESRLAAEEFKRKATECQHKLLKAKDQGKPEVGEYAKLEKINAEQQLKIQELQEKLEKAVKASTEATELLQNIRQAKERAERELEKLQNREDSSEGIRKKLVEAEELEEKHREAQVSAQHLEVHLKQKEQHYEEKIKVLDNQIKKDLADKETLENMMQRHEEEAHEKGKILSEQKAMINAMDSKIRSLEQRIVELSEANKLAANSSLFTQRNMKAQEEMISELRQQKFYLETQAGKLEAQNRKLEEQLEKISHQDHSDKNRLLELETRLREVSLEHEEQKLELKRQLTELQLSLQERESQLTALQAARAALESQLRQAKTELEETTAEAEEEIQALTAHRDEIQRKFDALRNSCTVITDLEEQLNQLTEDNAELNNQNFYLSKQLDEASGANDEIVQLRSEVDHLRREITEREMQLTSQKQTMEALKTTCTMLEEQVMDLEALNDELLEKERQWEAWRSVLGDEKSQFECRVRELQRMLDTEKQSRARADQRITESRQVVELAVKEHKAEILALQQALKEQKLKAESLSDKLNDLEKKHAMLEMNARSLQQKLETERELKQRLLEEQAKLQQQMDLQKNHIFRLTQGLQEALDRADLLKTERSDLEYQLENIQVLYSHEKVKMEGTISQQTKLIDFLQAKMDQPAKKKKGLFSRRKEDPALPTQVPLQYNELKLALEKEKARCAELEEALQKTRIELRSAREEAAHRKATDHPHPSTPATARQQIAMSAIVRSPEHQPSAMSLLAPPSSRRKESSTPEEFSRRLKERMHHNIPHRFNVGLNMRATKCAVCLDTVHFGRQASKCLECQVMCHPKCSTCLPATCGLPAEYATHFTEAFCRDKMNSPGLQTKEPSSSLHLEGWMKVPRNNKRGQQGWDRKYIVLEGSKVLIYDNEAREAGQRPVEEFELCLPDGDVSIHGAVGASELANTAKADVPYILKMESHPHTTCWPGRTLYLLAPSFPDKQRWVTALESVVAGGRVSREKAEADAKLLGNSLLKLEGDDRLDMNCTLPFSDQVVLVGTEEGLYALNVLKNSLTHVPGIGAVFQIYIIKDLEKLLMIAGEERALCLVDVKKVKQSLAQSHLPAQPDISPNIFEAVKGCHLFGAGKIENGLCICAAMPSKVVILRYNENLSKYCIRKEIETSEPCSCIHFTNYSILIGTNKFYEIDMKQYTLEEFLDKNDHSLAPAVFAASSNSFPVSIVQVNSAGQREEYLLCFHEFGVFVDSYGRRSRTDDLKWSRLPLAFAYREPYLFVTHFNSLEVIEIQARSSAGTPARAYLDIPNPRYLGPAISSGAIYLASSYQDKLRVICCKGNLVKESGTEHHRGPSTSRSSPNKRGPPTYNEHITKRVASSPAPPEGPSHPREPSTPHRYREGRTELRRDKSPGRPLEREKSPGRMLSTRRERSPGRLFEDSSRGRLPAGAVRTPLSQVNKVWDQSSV
observable: Kd (µM)
Quick reminder: number only, in µM, skip the unit.

Entry "Nc1nn2cc(F)cnc2c1C(=O)Nc1cncc(F)c1N1CCC(C(=O)N2CCN(C3COC3)CC2)CC1" ; assay system CIT ; O14578-4;O14578;O14578-2 (Homo sapiens); Kd recorded at 0.04

----------
biological target: GSKB (Homo sapiens, UniProt P49841); construct: endogenous in cells; experiment: Kinobeads competition pulldown in AsPC-1 lysate; settings: read-out: KDapp
Sequence (P49841 whole entry): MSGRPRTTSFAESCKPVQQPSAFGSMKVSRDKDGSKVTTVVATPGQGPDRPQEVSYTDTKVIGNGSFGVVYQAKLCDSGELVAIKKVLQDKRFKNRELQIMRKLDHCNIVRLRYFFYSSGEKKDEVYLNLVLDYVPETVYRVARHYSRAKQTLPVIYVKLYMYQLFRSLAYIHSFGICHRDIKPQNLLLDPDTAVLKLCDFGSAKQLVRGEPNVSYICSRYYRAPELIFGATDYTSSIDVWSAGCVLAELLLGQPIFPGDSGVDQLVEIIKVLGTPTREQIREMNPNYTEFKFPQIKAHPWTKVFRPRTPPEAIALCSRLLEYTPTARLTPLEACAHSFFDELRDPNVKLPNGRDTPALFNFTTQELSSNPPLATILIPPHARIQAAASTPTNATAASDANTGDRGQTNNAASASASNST
pKd: −log10 of the molar value.
observable: pKd

// field: pKd; key: Nc1nn2cc(F)cnc2c1C(=O)Nc1cncc(F)c1N1CCC(C(=O)N2CCN(C3COC3)CC2)CC1 [Gartisertib] ; value = > 8.00

----------
Target: UniProt:P19784
Sequence (P19784 whole entry): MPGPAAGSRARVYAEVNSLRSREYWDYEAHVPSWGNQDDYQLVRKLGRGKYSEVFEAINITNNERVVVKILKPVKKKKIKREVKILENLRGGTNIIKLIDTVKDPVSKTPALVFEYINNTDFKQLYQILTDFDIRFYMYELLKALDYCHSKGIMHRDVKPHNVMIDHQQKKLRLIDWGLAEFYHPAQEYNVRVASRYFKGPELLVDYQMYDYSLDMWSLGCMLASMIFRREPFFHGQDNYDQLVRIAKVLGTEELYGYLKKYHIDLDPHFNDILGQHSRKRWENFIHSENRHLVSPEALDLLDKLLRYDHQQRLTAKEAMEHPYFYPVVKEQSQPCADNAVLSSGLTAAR
Assay: biochemical
Procedure: This was followed by incubation with Kinobeads ε (17.5 µl of settled beads) for 30 min at 4 °C to enrich kinases. […] Enriched proteins were reduced with 50 mM DTT in 8 M urea, 40 mM Tris-HCl, pH 7.4 for 30 min at room temperature, and alkylated with 55 mM chloroacetamide. […] Residual binding of proteins was calculated from LFQ intensities as the ratio between drug doses and vehicle. […] Only kinases quantified with at least 4 unique peptides in the vehicle experiment were considered. […]
observable: Kd (nM)
Quick reminder: number only, in nM, skip the unit.

// field: Kd; key: Nc1nn2cc(F)cnc2c1C(=O)Nc1cncc(F)c1N1CCC(C(=O)N2CCN(C3COC3)CC2)CC1 [Gartisertib] ; value = 15.1

----------
Tested on: MiaPaCa-2
Assay: cells
Set-up: ATPlite luminescence viability of PDAC cell lines, 11-dose single-agent curves, 4-parameter fit
Details: Homo sapiens, MIA PaCa-2, 72 h, read-out: EC50 [nM]
Excerpt: Afterward, small amounts were transferred to 384-well intermediate plates (Greiner Bio-One GmbH, Germany). […] Next, we analyzed the drug sensitivity of immortalized duct cell line HPDE to detect effects unrelated to pancreatic cancer.
# reported EC50; entries follow
Quick reminder: number only, in nM, skip the unit.

// field: EC50; key: C=CCn1c(=O)c2cnc(Nc3ccc(N4CCN(C)CC4)cc3)nc2n1-c1cccc(C(C)(C)O)n1 [Adavosertib] ; value = 244

// field: EC50; key: CC1(COc2ccc3c(c2)ncn3-c2ccc3cccc(N4CCC(N)CC4)c3n2)COC1 [Crenolanib] ; value = 2190

----------
# reported EC50; entries follow
system: HPDE; test: cells; design: ATPlite luminescence viability of PDAC cell lines, 11-dose single-agent curves, 4-parameter fit; settings: HPDE, 72 h, read-out: EC50 [nM]
Quick reminder: number only, in nM, skip the unit.

// field: EC50; key: "C[C@]1(O)C[C@@H](c2nc(-c3ccc4ccc(-c5ccccc5)nc4c3)c3c(N)nccn32)C1" ; value = 7060

// field: EC50; key: "COc1cc2c(Oc3ccc4[nH]c(C)cc4c3F)ccnc2cc1OCC1(N)CC1" ; value = 6100

// field: EC50; key: "CN1CCN(c2ccc3nc(-c4c(N)c5c(F)cccc5[nH]c4=O)[nH]c3c2)CC1" ; value = 4540

// field: EC50; key: "CCCCCCCCCCCCCCCCCCOP(=O)([O-])OC1CC[N+](C)(C)CC1" ; value = 1280

----------
tested on: MiaPaCa-2 cells; test: Drug combination viability screen (ATPlite, 72 h); type: cell-based, human; conditions: Homo sapiens, MIA PaCa-2, read-out: EC50,GEM
observable: EC50

Entry Nc1ccn([C@@H]2O[C@H](CO)[C@@H](O)C2(F)F)c(=O)n1 [GEM, Gemcitabine] ; assay system MiaPaCa-2 cells; EC50 recorded at ≥ 0.01 µM

----------
system: PDO UME012; test: PDO viability assay (CellTiter-Glo, 72 h); assay type: cell-based, human; settings: Homo sapiens, PDO UME012, GEM + Elimusertib (ATRi) dose2, per replicate; read-out: EC50
observable: EC50 (nM)
Quick reminder: number only, in nM, skip the unit.

// field: EC50; key: "Nc1ccn([C@@H]2O[C@H](CO)[C@@H](O)C2(F)F)c(=O)n1" ; value = 3.37

----------
test system: PDO UME012; test: PDO viability assay (CellTiter-Glo, 72 h); type: cell-based, human; conditions: Homo sapiens, PDO UME012, GEM + Elimusertib (ATRi) dose1, per replicate; read-out: EC50
observable: pEC50
Reminder that pEC50 is minus the log10 of a molar concentration.

// field: pEC50; key: "Nc1ccn([C@@H]2O[C@H](CO)[C@@H](O)C2(F)F)c(=O)n1" ; value = 7.95

----------
system: PANC-1; assay: cells; parameters: Viability of PDAC cell lines, ATPlite luminescence, 11-dose single-agent curve fit; conditions: Homo sapiens, PANC-1, 72 h, read-out: EC50 [nM]
# reported EC50; entries follow
Quick reminder: number only, in nM, skip the unit.

// field: EC50; key: "[2H]C([2H])([2H])NC(=O)c1nnc(NC(=O)C2CC2)cc1Nc1cccc(-c2ncn(C)n2)c1OC" ; value = 2070

// field: EC50; key: "COc1cc(CCc2cc(NC(=O)c3ccc(N4C[C@@H](C)N[C@@H](C)C4)cc3)n[nH]2)cc(OC)c1" ; value = 5350

// field: EC50; key: "CC(C)(C)c1nc(-c2cccc(NS(=O)(=O)c3c(F)cccc3F)c2F)c(-c2ccnc(N)n2)s1" ; value = 5600

----------
system: PANC-1; assay: cells; design: Viability of PDAC cell lines, ATPlite luminescence, 11-dose single-agent curve fit; conditions: Homo sapiens, PANC-1, 72 h, read-out: EC50 [nM]
observable: log10 of EC50 (log10 of the value in nM)
Hi team, quick reminder: these entries are log10 of EC50 (nM).

1. C=CC(=O)N1CCC([C@@H]2CCNc3c(C(N)=O)c(-c4ccc(Oc5ccccc5)cc4)nn32)CC1 | 3.53

// field: log10 of EC50; key: "CCCS(=O)(=O)N[C@H]1C[C@@H](N(C)c2ncnc3[nH]ccc23)C1" ; value = 2.15
